- subject-of-test: Glucagon-like peptide 1 receptor (Homo sapiens)
- assay-overview: qHTS of GLP-1 Receptor Agonists: Hit Validation
- particulars: HEK293 GLP-1R, cAMP-response luciferase, 4-6 h; series mostly up to 46.1 µM
Screen size: about 1,300 compounds; about 25 (2%) were called active. Not shown: some 9% with an inconclusive outcome. Calls follow the shape of the dose curve; as a rule, active = well fitted activation curve with a large enough effect; inconclusive = small, poorly fitted or top-dose-only effect; inactive = flat fitted curve, though single readings scatter. Shown is part of a subset that was picked to be rich in actives.
Pick from active, inactive when you respond.

These recorded examples may help you get a feel for the data.
Which result was noted for this compound in the test: "COc1ccc(-c2cnc3c(NC=O)cc(-c4ccccc4OC)cn23)cc1OC"
active

Which result was noted for this compound in the test: "COc1ccc(NC(=O)c2cccnc2)cc1OCC(C)C"
inactive

Which result was noted for this compound in the test: "COc1ccc(-c2cnc3c(NC=O)cc(-c4ccc(C(=O)N5CCOCC5)cc4)cn23)cc1OC"
inactive

Which result was noted for this compound in the test: "Cc1ccc(-c2cc(NC=O)c3ncc(-c4cnn(C)c4)n3c2)cc1"
inactive

Which result was noted for this compound in the test: "COc1ccc(-c2cc(NC=O)c3ncc(-c4ccc(OC)c(OC)c4)n3c2)c(OC)c1"
active

Which result was noted for this compound in the test: "COc1cccc(-c2cnc3c(NC(C)=O)cc(-c4ccc(OC)c(OC)c4)cn23)c1"
inactive

More entries:
Which result was noted for this compound in the test: "COc1cccc(-c2cnc3c(NC=O)cc(-c4ccc(N(C)C)cc4)cn23)c1"
inactive

Hey, just so you know, these numbers are from PubChem BioAssay AID743262.
